# System: cynomolgus monkeys
# assay method text: 4-week safety study: serum biochemistry
# Format: in vivo
# assay context: Female, 450 mg/kg, d14
readout type: CREA (µM)
Answer format: numeric, µM implied, no suffix.

For this compound ( `COC(=O)NCCCn1nc([C@@H](C)N(C(=O)[C@H]2CNCCO2)C2CC2)c2ccc(C)nc21` ), measured CREA is 162

====

# Test system: cynomolgus monkeys
# assay method text: 4-week safety study: serum biochemistry
# Assay type: in vivo
# assay context: Male, 20 mg/kg, d26
readout type: CREA (µM)
Answer format: numeric, µM implied, no suffix.

For this compound ( `COC(=O)NCCCn1nc([C@@H](C)N(C(=O)[C@H]2CNCCO2)C2CC2)c2ccc(C)nc21` ), measured CREA is 64

====

# assay method text: Plasma pharmacokinetics and bioavailability after intravenous and oral administration
# Type: in vivo, cynomolgus monkeys
# assay context: both sexes, cynomolgus monkey, plasma; Monkey, 9 mg/kg po
readout type: Cmax (ng/mL)
Answer format: numeric, ng/mL implied, no suffix.

For this compound ( COC(=O)NCCCn1nc([C@@H](C)N(C(=O)[C@H]2CNCCO2)C2CC2)c2ccc(C)nc21 [compound of Formula I] ), measured Cmax is 263

====

# assay method text: Plasma pharmacokinetics and bioavailability after intravenous and oral administration
# Format: in vivo, cynomolgus monkeys
# assay context: both sexes, cynomolgus monkey, plasma; Monkey, 9 mg/kg po
readout type: MRT (h)
Answer format: numeric, h implied, no suffix.

For this compound ( `COC(=O)NCCCn1nc([C@@H](C)N(C(=O)[C@H]2CNCCO2)C2CC2)c2ccc(C)nc21` ), measured MRT is 2.62

====

# assay method text: Plasma pharmacokinetics and bioavailability after intravenous and oral administration
# Format: in vivo, cynomolgus monkeys
# assay context: both sexes, cynomolgus monkey, plasma; Monkey, 1 mg/kg po; read-out: Vss/F
readout type: Vd/F (L/kg)
Answer format: numeric, L/kg implied, no suffix.

For this molecule ( COC(=O)NCCCn1nc([C@@H](C)N(C(=O)[C@H]2CNCCO2)C2CC2)c2ccc(C)nc21 [compound of Formula I] ), measured Vd/F is 366

====

# assay method text: Plasma pharmacokinetics and bioavailability after intravenous and oral administration
# Format: in vivo, cynomolgus monkeys
# assay context: both sexes, cynomolgus monkey, plasma; Monkey, 1 mg/kg po
# Protocol: Cynomolgus monkeys (3/sex/group: weight 3-5 kg, age 5-6 years old) were obtained from SuZhou XiShan ZhongKe Laboratory Animals (Shanghai, China). Animals were housed for a 7-day acclimation period before study. […] The compound of Formula I was intravenously or orally administered to cynomolgus monkeys fasted overnight. […] The concentrations of the compound of Formula I in plasma were determined by the validated liquid chromatography-tandem mass spectrometry method. […]
readout type: AUC (ng·h/mL)
Answer format: numeric, ng·h/mL implied, no suffix.

For this compound ( `COC(=O)NCCCn1nc([C@@H](C)N(C(=O)[C@H]2CNCCO2)C2CC2)c2ccc(C)nc21` ), measured AUC is 11.8

====

# assay method text: Plasma pharmacokinetics and bioavailability after intravenous and oral administration
# Type: in vivo, cynomolgus monkeys
# assay context: both sexes, cynomolgus monkey, plasma; Monkey, 1 mg/kg iv
# Experimental: Cynomolgus monkeys (3/sex/group: weight 3-5 kg, age 5-6 years old) were obtained from SuZhou XiShan ZhongKe Laboratory Animals (Shanghai, China). Animals were housed for a 7-day acclimation period before study. […] The compound of Formula I was intravenously or orally administered to cynomolgus monkeys fasted overnight. […] The concentrations of the compound of Formula I in plasma were determined by the validated liquid chromatography-tandem mass spectrometry method. […]
readout type: Cmax (ng/mL)
Answer format: numeric, ng/mL implied, no suffix.

For this molecule ( COC(=O)NCCCn1nc([C@@H](C)N(C(=O)[C@H]2CNCCO2)C2CC2)c2ccc(C)nc21 [compound of Formula I] ), measured Cmax is 466

Sourced from patent US20230330093A1
